target or system: GRK2 (Homo sapiens, UniProt P25098)
Construct: purchased SignalChem A14-10G
assay protocol: ADPGlo GRK2 Inhibition Assay (Example 8)
Type: biochemical
assay context: Enzyme Assay A, ADPGlo (Example 8); read-out: A: Enzymatic GRK2: IC50 (nM) (Example 8)
Experimental: HTS was performed using 1 μM compound. Compounds were dissolved in 100% DMSO, serially diluted tree-fold from 100 μM concentration to 46 nM and transferred (50 nL) into assay ready plate. Materials: GRK2 was purchased from SignalChem (Cat #A14-10G, Lot #X^645-3). […] HTS protocol: Take 384 well plate with 50 nL of compound in columns 3-22/DMSO solution 1-2,23-24. […] Read plate in Luminescent modeon BMG PheraStar FSX (gain=3600). Data Analysis: Data were analyzed in GraphPad Prism 8.0.2. […]
quantity name: IC50 (nM)

compound: Cn1c(CNc2cccc(C(=O)N[C@@H]3COc4cc(F)ccc43)c2)nnc1-c1ccncn1
unit annotation: nM
IC50: 25.8
//
compound: O=C(N[C@@H]1COCc2ccccc21)c1cccc(NCc2nnc(-c3ccncn3)n2CCO)c1
unit annotation: nM
IC50: 1.47
//
compound: Cn1c(CNc2cccc(C(=O)N[C@@H]3COc4cc(F)ccc43)c2)nnc1-c1ccncc1
unit annotation: nM
IC50: 143

[A] Cn1c(CNc2cccc(C(=O)NC(c3ccccc3)C(C)(C)CO)c2)nnc1-c1ccncn1 (centres unmarked)
[B] Cc1ccc2c(c1)OCC[C@H]2NC(=O)c1cccc(NCc2nnc(-c3ccncn3)n2C)c1
Which one would you say has the larger IC50 value: A , or B ? Selection: enter the item's label. A

###

target or system: GRK2 (Homo sapiens, UniProt P25098)
Construct: purchased SignalChem A14-10G
Sequence (P25098 1-689): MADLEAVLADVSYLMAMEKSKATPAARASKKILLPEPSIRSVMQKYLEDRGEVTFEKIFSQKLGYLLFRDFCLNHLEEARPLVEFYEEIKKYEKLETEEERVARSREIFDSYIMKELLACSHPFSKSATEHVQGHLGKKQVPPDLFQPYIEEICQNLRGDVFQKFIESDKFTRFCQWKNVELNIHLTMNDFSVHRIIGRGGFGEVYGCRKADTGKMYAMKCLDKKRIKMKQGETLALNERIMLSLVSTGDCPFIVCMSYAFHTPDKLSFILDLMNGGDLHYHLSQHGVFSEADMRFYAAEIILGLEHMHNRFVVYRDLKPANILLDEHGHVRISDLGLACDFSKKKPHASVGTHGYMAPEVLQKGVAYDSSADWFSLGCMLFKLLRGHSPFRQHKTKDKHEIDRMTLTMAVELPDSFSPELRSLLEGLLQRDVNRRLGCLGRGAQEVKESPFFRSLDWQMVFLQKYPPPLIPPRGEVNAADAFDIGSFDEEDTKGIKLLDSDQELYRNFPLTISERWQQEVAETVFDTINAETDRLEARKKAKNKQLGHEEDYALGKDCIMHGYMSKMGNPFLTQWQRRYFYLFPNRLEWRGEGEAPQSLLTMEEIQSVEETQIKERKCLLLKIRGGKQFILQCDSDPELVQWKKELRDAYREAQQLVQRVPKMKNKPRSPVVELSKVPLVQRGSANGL
assay protocol: GRK2 Inhibition Assay (TR-FRET, Example 7)
Format: biochemical
assay context: Enzyme Assay B, TR-FRET (Example 7); read-out: B: Enzymatic GRK2: IC50 (nM) (Example 7)
quantity name: IC50 (nM)

Sample answers from the record:
molecule: Cn1cccc1CNC(=O)c1cccc(NCc2nnc(-c3ccncn3)n2C)c1 [drawing 585]
target or system: GRK2 (Homo sapiens, UniProt P25098)
IC50 (nM): 6.7

molecule: C[C@H](NC(=O)c1ccnc(NCc2nnc(-c3ccncn3)n2C)c1)c1ncccc1Cl
target or system: GRK2 (Homo sapiens, UniProt P25098)
IC50 (nM): 65

molecule: Cn1c(CNc2cccc(C(=O)N[C@@H]3CCOc4cc(Cl)ccc43)c2)nnc1-c1ccncn1
target or system: GRK2 (Homo sapiens, UniProt P25098)
IC50 (nM): 8.4

molecule: Cn1c(CNc2cccc(C(=O)NC3CCOc4cccnc43)c2)nnc1-c1ccncn1 (stereo not drawn) [drawing 572]
target or system: GRK2 (Homo sapiens, UniProt P25098)
IC50 (nM): 13

molecule: CCS(=O)(=O)c1ccc(CNC(=O)c2cccc(NCc3nnc(-c4ccncn4)n3C)c2)cc1 [drawing 618]
target or system: GRK2 (Homo sapiens, UniProt P25098)
IC50 (nM): 21

molecule: CCCn1c(CNc2cccc(C(=O)NCc3cccnc3OC)c2)nnc1-c1ccncn1
target or system: GRK2 (Homo sapiens, UniProt P25098)
IC50 (nM): 3.8

molecule: Cc1cccc2ncc(CNC(=O)c3ccnc(NCc4nnc(-c5ccncn5)n4C)c3)n12
target or system: GRK2 (Homo sapiens, UniProt P25098)
IC50 (nM): 24

[A] Cn1nccc1CNC(=O)c1cccc(NCc2nnc(-c3ccncn3)n2C)c1 [drawing 608]
[B] COc1cccc(OC)c1CNC(=O)c1cccc(NCc2nnc(-c3ccncc3)[nH]2)c1
Which one would you say has the larger IC50 value: A , or B ? Selection: enter the item's label. A
(A: 29 nM, B: 1.4 nM)
